target: RORγ LBD (Homo sapiens (Human)); experiment: ROR gamma radio-ligand binding assay (3H 25-Hydroxycholesterol competitive displacement, dextran charcoal method); details: 10 μM compound
observation_type: inhibition at 10 µM (%)
Provide only the numeric value, understood in %.

CCS(=O)(=O)c1ccc(CC(=O)Nc2cc(C)c3c(n2)CCC(C)(n2cccn2)C3=O)cc1 (stereo not drawn) = 98

Data request, read-out inhibition at 10 µM, for CCS(=O)(=O)c1ccc(CC(=O)Nc2ccc3c(n2)CC(C)(C)C(c2ccc(O)cn2)C3=O)cc1 (stereo not drawn) 84

Data request, read-out inhibition at 10 µM, for CCS(=O)(=O)c1ccc(CC(=O)Nc2ccc3c(n2)CCC(C)(c2ccc(C(C)C)nn2)C3=O)cc1 (stereo not drawn) 91

Data request, read-out inhibition at 10 µM, for CCS(=O)(=O)c1ccc(CC(=O)Nc2ccc3c(n2)CCC(C)(c2ccc(C)s2)C3=O)cc1 (stereo not drawn) 73

Data request, read-out inhibition at 10 µM, for CCS(=O)(=O)c1ccc(CC(=O)Nc2cc(C)c3c(n2)CCC(C)(c2ccc(OC)nn2)C3=O)cc1 (stereo not drawn) 88

Data request, read-out inhibition at 10 µM, for CCS(=O)(=O)c1ccc(CC(=O)Nc2ccc3c(n2)CCC(C)(c2ncc(OC)cn2)C3=O)cc1 (stereo not drawn) 94

Data request, read-out inhibition at 10 µM, for CCS(=O)(=O)c1ccc(CC(=O)Nc2ccc3c(n2)CCC(C)(c2nccn4cccc24)C3=O)cc1 (stereo not drawn) 92

Data request, read-out inhibition at 10 µM, for CCS(=O)(=O)c1ccc(CC(=O)Nc2cc(C)c3c(n2)CCC(C)(c2cccc(OC)n2)C3=O)cc1 (stereo not drawn) 98

Data request, read-out inhibition at 10 µM, for CCS(=O)(=O)c1ccc(CC(=O)Nc2cc(C)c3c(n2)CCC(C)(c2cc(C)nc(C)n2)C3=O)cc1 (stereo not drawn) 100

Data request, read-out inhibition at 10 µM, for CCS(=O)(=O)c1ccc(CC(=O)Nc2ccc3c(n2)CCC(C)(c2nccn4c(C)cnc24)C3=O)cc1 (stereo not drawn) 82

Data request, read-out inhibition at 10 µM, for CCS(=O)(=O)c1ccc(CC(=O)Nc2ccc3c(n2)CCC(C)(c2ccc(OC)nc2)C3=O)cc1 (stereo not drawn) 89

Data request, read-out inhibition at 10 µM, for CCS(=O)(=O)c1ccc(CC(=O)Nc2cc(C)c3c(n2)CCC(C)(c2ccc(OC)cn2)C3=O)cc1 (stereo not drawn) 95

Data request, read-out inhibition at 10 µM, for CCS(=O)(=O)c1ccc(CC(=O)Nc2ccc3c(n2)CCC(C)(c2ccc(O)nc2)C3=O)cc1 (stereo not drawn) 88

Data request, read-out inhibition at 10 µM, for CCS(=O)(=O)c1ccc(CC(=O)Nc2cc(C)c3c(n2)CCC(C)(c2cc(OC)ccn2)C3=O)cc1 (stereo not drawn) 95

Data request, read-out inhibition at 10 µM, for CCS(=O)(=O)c1ccc(CC(=O)Nc2cc(C)c3c(n2)CCC(C)(c2ncccc2O)C3=O)cc1 (stereo not drawn) 95

###

target: RORγ LBD (Homo sapiens (Human), UniProt P51449); assay: ROR gamma radio-ligand binding assay (3H 25-Hydroxycholesterol competitive displacement, dextran charcoal method); conditions: 1 μM compound
Sequence (P51449 268-518): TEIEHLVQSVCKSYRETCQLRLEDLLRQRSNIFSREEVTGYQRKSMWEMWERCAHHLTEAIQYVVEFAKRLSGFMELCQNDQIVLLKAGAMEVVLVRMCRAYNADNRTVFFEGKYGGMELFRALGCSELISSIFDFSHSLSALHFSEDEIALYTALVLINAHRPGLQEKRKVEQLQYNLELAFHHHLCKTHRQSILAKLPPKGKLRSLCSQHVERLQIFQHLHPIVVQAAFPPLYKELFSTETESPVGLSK
This listing pairs compounds with measured inhibition at 1 µM.

Answered cases to consult:
CCS(=O)(=O)c1ccc(CC(=O)Nc2ccc3c(n2)CCC(C)(c2nccn4ccnc24)C3=O)cc1 (centres unmarked) = 72%
CCc1cc(C2(C)CCc3nc(NC(=O)Cc4ccc(S(=O)(=O)CC)cc4)ccc3C2=O)nc(C)n1 (centres unmarked) = 51%
CCC1(c2nccn3ccnc23)CCc2nc(NC(=O)Cc3ccc(S(=O)(=O)CC)cc3)ccc2C1=O (centres unmarked) = 0%

Data request, read-out inhibition at 1 µM, for CCS(=O)(=O)c1ccc(CC(=O)Nc2cc(C)c3c(n2)CCC(C)(c2cccnc2O)C3=O)cc1 (centres unmarked) 82%

Data request, read-out inhibition at 1 µM, for CCS(=O)(=O)c1ccc(CC(=O)Nc2ccc3c(n2)CCC(C)(c2ccc(C(C)C)nn2)C3=O)cc1 (centres unmarked) 96%

Data request, read-out inhibition at 1 µM, for CCS(=O)(=O)c1ccc(CC(=O)Nc2ccc3c(n2)CCC(C)(c2ccc(O)nc2)C3=O)cc1 (centres unmarked) 44%

###

target: RORγ LBD (Homo sapiens (Human), UniProt P51449); test: ROR gamma radio-ligand binding assay (3H 25-Hydroxycholesterol competitive displacement, dextran charcoal method); conditions: 10 μM compound
This listing pairs compounds with measured inhibition at 10 µM.
Provide only the numeric value, understood in %.

Answered cases to consult:
CCS(=O)(=O)c1ccc(CC(=O)Nc2ccc3c(n2)CCC(C)(c2ncc(Cl)n4ccnc24)C3=O)cc1 (centres unmarked) [Compound 92] = 80
CCS(=O)(=O)c1ccc(CC(=O)Nc2cc(C)c3c(n2)CCC(C)(c2ccc4c(c2)OCO4)C3=O)cc1 (centres unmarked) [Compound 42] = 92
CCS(=O)(=O)c1ccc(CC(=O)Nc2ccc3c(n2)CCC(C)(c2nccn4ccnc24)C3=O)cc1 (centres unmarked) [Compound 6] = 96

Data request, read-out inhibition at 10 µM, for CCS(=O)(=O)c1ccc(CC(=O)Nc2ccc3c(n2)CCC(C)(c2nccn4cc(C)nc24)C3=O)cc1 (centres unmarked) [Compound 9] 100

Data request, read-out inhibition at 10 µM, for CCS(=O)(=O)c1ccc(CC(=O)Nc2cc(C)c3c(n2)CCC(C)(c2c(C)ccnc2O)C3=O)cc1 (centres unmarked) [Compound 86] 100

Data request, read-out inhibition at 10 µM, for CCc1nc(C)cc(C2(C)CCc3nc(NC(=O)Cc4ccc(S(=O)(=O)CC)cc4)ccc3C2=O)n1 (centres unmarked) [compound 132] 103

Data request, read-out inhibition at 10 µM, for CCS(=O)(=O)c1ccc(CC(=O)Nc2nc3c(cc2C)C(=O)C(C)(c2nccn4ccnc24)CC3)cc1 (centres unmarked) [Compound 11] 71

Data request, read-out inhibition at 10 µM, for CCS(=O)(=O)c1ccc(CC(=O)Nc2ccc3c(n2)CCC(C)(c2cc(C)nc(C)n2)C3=O)cc1 (centres unmarked) [Compound 7] 100

###

Endpoint: IC50. System: UniProt:P51449. Items follow.

CCS(=O)(=O)c1ccc(CC(=O)Nc2cc(C)c3c(n2)CCC(C)(c2cc(C)nc(OC)n2)C3=O)cc1 (stereo not shown) = < 150 nM

Please tell me: IC50 of CCS(=O)(=O)c1ccc(CC(=O)Nc2ccc3c(n2)CCC(C)(c2nccn4cccc24)C3=O)cc1 (stereo not shown) , system UniProt:P51449? < 150 nM

Please tell me: IC50 of CCS(=O)(=O)c1ccc(CC(=O)Nc2cc(C)c3c(n2)CCC(C)(c2nc(C)cc(C)n2)C3=O)cc1 (stereo not shown) , system UniProt:P51449? 150 to 300 nM

Please tell me: IC50 of Cc1cc(NC(=O)Cc2ccc(S(C)(=O)=O)cc2)nc2c1C(=O)C(C)(c1ncccc1O)CC2 (stereo not shown) , system UniProt:P51449? > 300 nM

Please tell me: IC50 of CCS(=O)(=O)c1ccc(CC(=O)Nc2ccc3c(n2)CCC(C)(c2nccn4ccnc24)C3=O)cc1 (stereo not shown) , system UniProt:P51449? 150 to 300 nM

Please tell me: IC50 of CCS(=O)(=O)c1ccc(CC(=O)Nc2cc(C)c3c(n2)CCC(C)(c2ccc(C)nn2)C3=O)cc1 (stereo not shown) , system UniProt:P51449? > 300 nM

Please tell me: IC50 of CCS(=O)(=O)c1ccc(CC(=O)Nc2ccc3c(n2)CCC(C)(c2cc(C)nc(C)n2)C3=O)cc1 (single isomer, unassigned) [compound 104] , system UniProt:P51449? < 150 nM

###

This listing pairs compounds with measured IC50.
Target: ROR gamma ligand binding domain (Homo sapiens (Human))
Sequence (P51449 269-508): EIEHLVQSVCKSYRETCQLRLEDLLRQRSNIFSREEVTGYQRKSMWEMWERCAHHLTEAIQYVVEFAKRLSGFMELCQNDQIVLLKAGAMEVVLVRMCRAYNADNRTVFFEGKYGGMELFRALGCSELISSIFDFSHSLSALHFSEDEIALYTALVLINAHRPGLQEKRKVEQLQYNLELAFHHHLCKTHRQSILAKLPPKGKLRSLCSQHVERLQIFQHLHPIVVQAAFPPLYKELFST
Assay: ROR gamma luciferase reporter assay (GAL4-ROR gamma LBD, HEK293 cells)
Assay type: cell-based
Conditions: 48 hours treatment, read-out: RORγ luciferase Reporter assay: IC50 (nM) (in range)
Protocol: The Ligand Binding Domain (LBD) of ROR gamma was cloned into pFN26A (BIND) hRluc-neo Flexi vector (Promega) which expresses a fusion protein comprised of a DNA binding domain of the yeast GAL4 gene, a linker segment and ROR gamma ligand binding domain. […] The assay was terminated using the Bright-Glo Luciferase assay system from Promega and the Luminescence was measured using a luminescence reader. The luminescence values were used to calculate the potency of the compounds.

CCS(=O)(=O)c1ccc(CC(=O)Nc2ccc3c(n2)CCC(C)(c2ncc(OC)cn2)C3=O)cc1 (stereo not shown) [Compound 56] = < 100 nM
CCS(=O)(=O)c1ccc(CC(=O)Nc2ccc3c(n2)CCC(C)(c2nccn4c(C)cnc24)C3=O)cc1 (single isomer, unassigned) [compound 113] = < 100 nM
CCS(=O)(=O)c1ccc(CC(=O)Nc2cc(C)c3c(n2)CCC(C)(c2ccc(OC)nn2)C3=O)cc1 (single isomer, unassigned) [compound 110] = < 100 nM
CCS(=O)(=O)c1ccc(CC(=O)Nc2ccc3c(n2)CCC(C)(c2nccn4cc(C)nc24)C3=O)c(F)c1 (stereo not shown) [Compound 58] = 100 to 500 nM
CCS(=O)(=O)c1ccc(CC(=O)Nc2cc(C)c3c(n2)CCC(C)(c2ccc(OC)nn2)C3=O)cc1 (single isomer, unassigned) [compound 109] = > 500 nM

Please tell me: IC50 of CCS(=O)(=O)c1ccc(CC(=O)Nc2cc(C)c3c(n2)CCC(C)(c2nccn4cc(C)nc24)C3=O)cc1 (stereo not shown) [Compound 52] , system ROR gamma ligand binding domain (Homo sapiens (Human))? < 100 nM

Please tell me: IC50 of CCS(=O)(=O)c1ccc(CC(=O)Nc2ccc3c(n2)CCC(C)(c2nccn4c(F)cnc24)C3=O)cc1 (stereo not shown) [Compound 97] , system ROR gamma ligand binding domain (Homo sapiens (Human))? > 500 nM

Cited source for all entries: patent US11229636B2
